Biological target: recombinant human MASP2 active protease (amino acids 297-686, C-terminal His Tag) (human, UniProt O00187 297-686)
Sequence (O00187 other isoform, or with tags, fused parts or gaps limits assumed): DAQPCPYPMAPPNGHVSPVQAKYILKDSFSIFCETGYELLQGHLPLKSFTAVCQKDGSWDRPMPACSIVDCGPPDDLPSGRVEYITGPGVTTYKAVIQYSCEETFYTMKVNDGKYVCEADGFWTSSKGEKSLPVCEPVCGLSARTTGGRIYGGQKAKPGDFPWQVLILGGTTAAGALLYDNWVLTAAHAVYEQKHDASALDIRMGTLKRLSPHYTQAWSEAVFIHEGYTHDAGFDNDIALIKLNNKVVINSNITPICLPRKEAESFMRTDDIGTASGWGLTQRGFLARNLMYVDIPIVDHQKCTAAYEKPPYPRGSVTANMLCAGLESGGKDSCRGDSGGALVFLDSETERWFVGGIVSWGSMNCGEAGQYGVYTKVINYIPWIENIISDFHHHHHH
Assay: cell-based or functional assay
Numbered stars: 1 amine (or outer) side, 2 acyl side, 3 side chain; on linkers, the order of the positions; unused ones are H or OH. Bridge positions count the residues as written; N and C are the ends. Square brackets hold non-standard residues; d marks the D form. Ends that are not written are not given here. (Me)R = N(5)-methyl-L-arginine, CN(CCC[C@H](N[*:1])C(=O)[*:2])C(=N)N; Oic = O=C(O)[C@@H]1C[C@@H]2CCCC[C@@H]2N1; tBuAla = CC(C)(C)C[C@H](N)C(=O)O; Pen = CC(C)(S)[C@H](N)C(=O)O; β3hP = O=C(O)C[C@@H]1CCCN1; Sar = CNCC(=O)O
endpoint_label: human MASP2 IC50 (nM)
The response must be a number in nM with no trailing unit.

The following binders have reported results that may help.
Prompt: Fill in the blank: the reported human MASP2 IC50 of [Sar]ICSRSLPPICIPD-OH (disulfide 3-11; also: HCl salt) [Example 318: ((N-Me)G)-IC+SRSLPPIC+IPD-OH (HCl- Salt)] is ____.
Response: 610

Prompt: Using the record for AICS[(Me)R]S[tBuAla]PPI[Pen]IPD-NH2 (disulfide 3-11; N-terminus assumed; SMILES CC[C@H](C)[C@H](NC(=O)[C@H](C)N)C(=O)N[C@H]1CSSC(C)(C)[C@@H](C(=O)N[C@H](C(=O)N2CCC[C@H]2C(=O)N[C@@H](CC(=O)O)C(N)=O)[C@@H](C)CC)NC(=O)[C@H]([C@@H](C)CC)NC(=O)[C@@H]2CCCN2C(=O)[C@@H]2CCCN2C(=O)[C@H](CC(C)(C)C)NC(=O)[C@H](CO)NC(=O)[C@H](CCCN(C)C(=N)N)NC(=O)[C@H](CO)NC1=O) [Example 403: AIC+S-((Me)R)-S-((tBu)A)-PPI-(Pen)+IPD-NH2] , report its human MASP2 IC50.
Response: 740

Now, please, on to the next binder.
Prompt: Look up human MASP2 IC50 for this binder: [Sar]ICSRSLP[Oic]I[Pen]IP[β3hP]-OH (disulfide 3-11; N-terminus assumed; SMILES CC[C@H](C)[C@H](NC(=O)CNC)C(=O)N[C@H]1CSSC(C)(C)[C@@H](C(=O)N[C@H](C(=O)N2CCC[C@H]2C(=O)N2CCC[C@H]2CC(=O)O)[C@@H](C)CC)NC(=O)[C@H]([C@@H](C)CC)NC(=O)[C@@H]2C[C@@H]3CCCC[C@@H]3N2C(=O)[C@@H]2CCCN2C(=O)[C@H](CC(C)C)NC(=O)[C@H](CO)NC(=O)[C@H](CCCNC(=N)N)NC(=O)[C@H](CO)NC1=O) [Example 455: ((N-Me)G)-IC+SRSLP-(Oic)-I-(Pen)+IP-(beta-homo-P)-OH]
Response: 85
